# study_system: human plasma kallikrein (Homo sapiens (Human))
# assay_explanation: Kallikrein inhibition assay (FLINT) utilizing a quenched AMC peptide substrate
# Assay type: biochemical
# protocol_conditions: 30 min preincubation, kinetic reads over 30 min, Z-Gly-Pro-Arg-AMC substrate 50 μM; read-out: Kallikrein Kin Inh IC50
Param label: returns 1 when IC50 < 0.01 µM, returns -1 otherwise, including exact equality.

compound: O=C1C=C(c2c(-n3cnnn3)ccc(Cl)c2F)C[C@H]2CC[C@@H](c3ncc(-c4c[nH]c5ncncc45)[nH]3)N12
label_value: 1
//
compound: [2H]c1cc(-c2cnc([C@@H]3CC[C@@H]4CC(c5cc(Cl)ccc5-n5cnnn5)=CC(=O)N43)[nH]2)c(F)nc1N
label_value: -1
//
compound: NC(=O)c1ncc(-c2c[nH]c([C@@H]3CC[C@H]4CC(c5c(-n6cc(C(F)(F)F)nn6)ccc(Cl)c5F)=CC(=O)N43)n2)s1 (single isomer, unassigned)
label_value: -1
//
compound: O=C1C=C(c2c(-n3cnnn3)ccc(Cl)c2F)C[C@H]2CC[C@@H](c3nc(-c4ccnc5[nH]ccc45)c[nH]3)N12
label_value: 1
//
compound: O=C(O)c1ccc(-c2cnc([C@@H]3CCC4CC(c5c(-n6cc(Cl)nn6)ccc(Cl)c5F)=CC(=O)N43)[nH]2)s1 (stereo partly drawn)
label_value: -1

Input O=C1C=C(c2c(-n3cnnn3)ccc(Cl)c2F)C[C@@H]2CC[C@@H](c3ncc(-c4ccnc([C@H](O)C(F)(F)F)c4)[nH]3)N12 (relative stereo) ; condition: IC50 strictly below 0.01 µM. Does it hold?
-1

Input CCOC(=O)Nc1cnccc1-c1c[nH]c([C@@H]2CC[C@H]3CC(c4c(-n5cnnn5)ccc(Cl)c4F)=CC(=O)N32)n1 ; condition: IC50 strictly below 0.01 µM. Does it hold?
-1

Input O=C1C=C(c2c(-n3cnnn3)ccc(Cl)c2F)C[C@H]2CC[C@@H](c3ncc(-c4ccnc5ccsc45)[nH]3)N12 ; condition: IC50 strictly below 0.01 µM. Does it hold?
1

Input O=C1C=C(c2c(OC(F)F)ccc(Cl)c2F)C[C@H]2CC[C@@H](c3nc(F)c(-c4ccnc(CO)c4F)[nH]3)N12 ; condition: IC50 strictly below 0.01 µM. Does it hold?
-1

Input Nc1ccc(-c2cnc([C@@H]3CC[C@H]4CC(c5c(-n6cnnn6)ccc(Cl)c5F)=CC(=O)N43)[nH]2)c(Cl)n1 ; condition: IC50 strictly below 0.01 µM. Does it hold?
1

Input O=C1C=C(c2c(-n3cnnn3)ccc(Cl)c2F)C[C@H]2CC[C@@H](c3ncc(-c4ccnc5c4CCO5)[nH]3)N12 ; condition: IC50 strictly below 0.01 µM. Does it hold?
1

Input CC1(C)C[C@@H](c2ncc(-c3ccc(N)nc3F)[nH]2)N2C(=O)C=C(c3c(-n4cnnn4)ccc(Cl)c3F)CC21 (stereo partly drawn) ; condition: IC50 strictly below 0.01 µM. Does it hold?
-1

Input O=C1C=C(c2c(-n3cnnn3)ccc(Cl)c2F)C[C@H]2CC[C@H](c3ncc(-c4ccnc(-n5ccnn5)c4F)[nH]3)N12 (single isomer, unassigned) ; condition: IC50 strictly below 0.01 µM. Does it hold?
-1

Input [2H][C@]12CC[C@@H](c3ncc(-c4ccc(N)nc4F)[nH]3)N1C(=O)C=C(c1c(-n3cnnn3)ccc(Cl)c1F)C2 ; condition: IC50 strictly below 0.01 µM. Does it hold?
1

Input CC(C)(CO)Nc1nccc(-c2cnc([C@@H]3CC[C@@H]4CC(c5c(-n6cnnn6)ccc(Cl)c5F)=CC(=O)N43)[nH]2)c1F ; condition: IC50 strictly below 0.01 µM. Does it hold?
1

###

# study_system: Factor XIa (Homo sapiens (Human))
# Sequence (P03951 388-625): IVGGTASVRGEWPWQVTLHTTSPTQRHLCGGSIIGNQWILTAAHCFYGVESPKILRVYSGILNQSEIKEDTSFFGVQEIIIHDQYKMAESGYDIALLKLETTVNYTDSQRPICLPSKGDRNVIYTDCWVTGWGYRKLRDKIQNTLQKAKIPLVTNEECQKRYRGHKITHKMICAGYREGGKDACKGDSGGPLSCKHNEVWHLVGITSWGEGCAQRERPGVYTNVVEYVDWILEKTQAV
# Sequence (P03951 19-387 partner): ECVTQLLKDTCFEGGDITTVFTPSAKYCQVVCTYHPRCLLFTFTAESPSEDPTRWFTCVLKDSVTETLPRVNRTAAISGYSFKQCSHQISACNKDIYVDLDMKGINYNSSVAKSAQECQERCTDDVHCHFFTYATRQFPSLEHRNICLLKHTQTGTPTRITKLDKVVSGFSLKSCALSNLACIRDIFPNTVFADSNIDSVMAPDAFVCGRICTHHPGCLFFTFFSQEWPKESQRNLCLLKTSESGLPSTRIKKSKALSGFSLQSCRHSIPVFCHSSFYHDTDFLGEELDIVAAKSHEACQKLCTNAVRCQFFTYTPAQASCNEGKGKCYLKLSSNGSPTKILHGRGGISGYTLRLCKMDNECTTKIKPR
# assay_explanation: Factor XIa inhibition assay (FLINT) utilizing a fluorophore-quencher pair peptide substrate
# Assay type: biochemical
# protocol_conditions: 30 min preincubation, kinetic reads over 30 min, 5Fam-KLTRAETV-K5Tamra substrate 15 μM; read-out: FXIa Kin Inh IC50
Param label: returns Fulfilled when IC50 < 2 nM, returns Not fulfilled otherwise, including exact equality.

For orientation, consider the following solved cases.
compound: COC(=O)Nc1nccc(-c2cnc([C@@H]3CC[C@@H]4CC(c5c(-n6cnnn6)ccc(Cl)c5F)=CC(=O)N43)[nH]2)c1F
study_system: Factor XIa (Homo sapiens (Human))
label_value: Fulfilled

compound: CC(C)Oc1ccccc1-c1cnc([C@@H]2CCC3CC(c4c(-n5cnnn5)ccc(Cl)c4F)=CC(=O)N32)[nH]1 (stereo partly drawn)
study_system: Factor XIa (Homo sapiens (Human))
label_value: Not fulfilled

compound: O=C1C=C(c2c(-n3cnnn3)ccc(Cl)c2F)C[C@H]2CC[C@@H](c3ncc(-c4ccc(CO)nc4Cl)[nH]3)N12
study_system: Factor XIa (Homo sapiens (Human))
label_value: Not fulfilled

compound: O=C1C=C(c2c(-n3cnnn3)ccc(Cl)c2F)C[C@H]2CC[C@@H](c3ncc(-c4ccc5[nH]c(=O)[nH]c5c4)[nH]3)N12 (single isomer, unassigned)
study_system: Factor XIa (Homo sapiens (Human))
label_value: Fulfilled

compound: CNc1ccc(-c2cnc([C@@H]3CC[C@H]4CC(c5c(-n6cnnn6)ccc(Cl)c5F)=CC(=O)N43)[nH]2)c(F)n1
study_system: Factor XIa (Homo sapiens (Human))
label_value: Fulfilled

compound: CC12CC[C@@H](c3ncc(-c4ccnc(CO)c4F)[nH]3)N1C(=O)C=C(c1c(-n3cnnn3)ccc(Cl)c1F)C2 (stereo partly drawn)
study_system: Factor XIa (Homo sapiens (Human))
label_value: Not fulfilled

compound: NC(=O)Cc1nccc(-c2cnc([C@@H]3CC[C@@H]4CC(c5c(-n6cc(C(F)(F)F)nn6)ccc(Cl)c5F)=CC(=O)N43)[nH]2)c1F (single isomer, unassigned)
study_system: Factor XIa (Homo sapiens (Human))
label_value: Not fulfilled

compound: CONC(=O)c1nccc(-c2cnc([C@@H]3CC[C@@H]4CC(c5c(-n6cnnn6)ccc(Cl)c5F)=CC(=O)N43)[nH]2)c1F
study_system: Factor XIa (Homo sapiens (Human))
label_value: Fulfilled

Input NC(=O)c1ccc(-c2cnc([C@@H]3CC[C@@H]4CC(c5c(-n6cnnn6)ccc(Cl)c5F)=CC(=O)N43)[nH]2)c(F)c1 ; condition: IC50 strictly below 2 nM. Does it hold?
Fulfilled

###

# study_system: human plasma kallikrein (Homo sapiens (Human))
# assay_explanation: Kallikrein inhibition assay (FLINT) utilizing a quenched AMC peptide substrate
# Type: biochemical
# protocol_conditions: 30 min preincubation, kinetic reads over 30 min, Z-Gly-Pro-Arg-AMC substrate 50 μM; read-out: Kallikrein Kin Inh IC50
Kindly supply the reported IC50 values for the records listed here.
One number for each entry, in nM.

Take a look at these entries with their results.
compound: O=C1C=C(c2c(-n3cnnn3)ccc(Cl)c2F)C[C@@H]2CC[C@@H](c3ncc(-c4ccnc(N[C@H]5CCOC5)c4F)[nH]3)N12 (single isomer, unassigned) [Example 74]
IC50, nM: 4.9

compound: O=C1C=C(c2c(-n3cc(C(F)(F)F)nn3)ccc(Cl)c2F)C[C@@H]2CC[C@H](c3ncc(-c4c[nH]c5ncccc45)[nH]3)N12 (single isomer, unassigned) [Example 140]
IC50, nM: 6.2

compound: O=C1C=C(c2c(-n3cnnn3)ccc(Cl)c2F)C[C@H]2CC[C@@H](c3ncc(-c4ccnc([C@@H](O)C(F)(F)F)c4F)[nH]3)N12 (single isomer, unassigned) [Example 171]
IC50, nM: 31.7

compound: O=C1C=C(c2c(-n3cnnn3)ccc(Cl)c2F)C[C@H]2CC[C@@H](c3nc(-c4ccnc5[nH]ncc45)c[nH]3)N12 [Example 38]
IC50, nM: 2.6

compound: CC1C[C@@H](c2ncc(-c3ccc(N)nc3Cl)[nH]2)N2C(=O)C=C(c3c(-n4cnnn4)ccc(Cl)c3F)CC12 (stereo partly drawn) [Example 347]
IC50, nM: 5.5

compound: [2H]C([2H])([2H])C(=O)Nc1cnccc1-c1c[nH]c([C@@H]2CCC3CC(c4c(-n5cnnn5)ccc(Cl)c4F)=CC(=O)N32)n1 (stereo partly drawn) [Example 256]
IC50, nM: 67.5

compound: O=C1C=C(c2c(-n3cnnn3)ccc(Cl)c2F)C[C@H]2CC[C@@H](c3nc(-c4ccc5[nH]ncc5c4)c[nH]3)N12 [Example 43]
IC50, nM: 4

# input for lookup
Memo: O=C1C=C(c2c(-n3cnnn3)ccc(Cl)c2F)C[C@H]2CC[C@@H](c3ncc(-c4c[nH]nc4C(F)(F)F)[nH]3)N12 (single isomer, unassigned) [Example 240] , reported IC50: 12.9

###

# study_system: human plasma kallikrein (Homo sapiens (Human), UniProt P03952)
# Sequence (P03952 391-638): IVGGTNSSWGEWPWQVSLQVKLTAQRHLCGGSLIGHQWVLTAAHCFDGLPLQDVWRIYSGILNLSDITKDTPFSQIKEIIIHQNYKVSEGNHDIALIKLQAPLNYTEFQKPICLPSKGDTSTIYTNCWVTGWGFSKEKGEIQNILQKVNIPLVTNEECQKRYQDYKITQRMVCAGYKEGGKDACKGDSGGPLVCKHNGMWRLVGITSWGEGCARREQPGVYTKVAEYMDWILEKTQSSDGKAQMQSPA
# Sequence (P03952 20-390 partner): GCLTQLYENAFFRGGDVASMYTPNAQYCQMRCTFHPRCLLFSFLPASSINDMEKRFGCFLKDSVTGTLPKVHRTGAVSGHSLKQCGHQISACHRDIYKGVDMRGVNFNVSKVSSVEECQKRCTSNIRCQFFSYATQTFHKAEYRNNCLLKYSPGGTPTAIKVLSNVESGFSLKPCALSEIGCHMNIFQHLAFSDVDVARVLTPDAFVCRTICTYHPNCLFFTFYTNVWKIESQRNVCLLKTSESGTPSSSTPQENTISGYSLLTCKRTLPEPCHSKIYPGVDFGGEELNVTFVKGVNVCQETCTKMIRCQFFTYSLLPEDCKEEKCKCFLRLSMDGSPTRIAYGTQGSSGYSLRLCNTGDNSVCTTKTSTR
# assay_explanation: Kallikrein inhibition assay (FLINT) utilizing a quenched AMC peptide substrate
# Format: biochemical
# protocol_conditions: 30 min preincubation, kinetic reads over 30 min, Z-Gly-Pro-Arg-AMC substrate 50 μM; read-out: Kallikrein Kin Inh IC50
pIC50: −log10 of the molar value.
Label scheme for pIC50: lower than 8 is not fulfilled, 8 and above is fulfilled.

compound: O=C1CCc2cc(-c3cnc([C@@H]4CCC5CC(c6c(-n7cnnn7)ccc(Cl)c6F)=CC(=O)N54)[nH]3)ccc2N1 (some centres unmarked) [Example 311]
study_system: human plasma kallikrein (Homo sapiens (Human), UniProt P03952)
label_value: fulfilled
--
compound: Nc1n[nH]c2cc(-c3cnc([C@@H]4CCC5CC(c6c(-n7cnnn7)ccc(Cl)c6F)=CC(=O)N54)[nH]3)ccc12 (some centres unmarked) [Example 313]
study_system: human plasma kallikrein (Homo sapiens (Human), UniProt P03952)
label_value: fulfilled
--
compound: [2H]c1nc(C2CCC3CC(c4c(-n5cnnn5)ccc(Cl)c4F)=CC(=O)N32)[nH]c1-c1ccc(N)nc1F (stereo in doubt) [Example 154]
study_system: human plasma kallikrein (Homo sapiens (Human), UniProt P03952)
label_value: fulfilled
--
compound: COC(=O)Nc1ccccc1-c1cnc([C@@H]2CC[C@@H]3CC(c4c(-n5cnnn5)ccc(Cl)c4F)=CC(=O)N32)[nH]1 (relative stereo) [Example 301]
study_system: human plasma kallikrein (Homo sapiens (Human), UniProt P03952)
label_value: not fulfilled

Identify whether the reported pIC50 of the following compound is 8 or greater: O=C1C=C(c2c(-n3cnnn3)ccc(Cl)c2F)C[C@H]2CC[C@@H](c3ncc(-c4ccnc(N[C@H]5CCOC5)c4F)[nH]3)N12 (single isomer, unassigned) [Example 73]
fulfilled
